Sourced from paper PMC3658146

Assay: Plasma pharmacokinetics after a single oral dose of IPdR
Format: in vivo, human (patients with advanced malignancies)
Settings: human, plasma, po, 150 mg
Measurement name: AUC (µM·h)
Give the quantity in µM·h, number only.

q: Look at this compound and give its reported AUC. O=c1[nH]c(=O)n([C@H]2C[C@H](O)[C@@H](CO)O2)cc1I [IdUrd, 5-iodo-2′-deoxyuridine, reference compound]
a: 1.7

q: Using the record for O=c1[nH]cc(I)c(=O)[nH]1 [IUra, 5-iodouracil] , report its AUC.
a: 1

###

Assay: Plasma pharmacokinetics after a single oral dose of IPdR
Format: in vivo, human (patients with advanced malignancies)
Conditions: human, plasma, po, 1200 mg
Provide the reported Cmax of each item.
Report the value in µM with no unit label.

q: Report Cmax for O=c1[nH]cc(I)c(=O)[nH]1 please.
a: 34.2

q: Field request: Cmax | item: O=c1[nH]c(=O)n([C@H]2C[C@H](O)[C@@H](CO)O2)cc1I [IdUrd, 5-iodo-2′-deoxyuridine, reference compound]
a: 2.1

###

Assay: Plasma pharmacokinetics after a single oral dose of IPdR
Format: in vivo, human (patients with advanced malignancies)
Conditions: read-out: IPdR Cmax; plasma, single oral IPdR 1200 mg, one patient
Measurement name: Cmax (nM)
Numeric answer only, unit nM assumed.

q: Reported Cmax, compound O=c1ncc(I)cn1[C@H]1C[C@H](O)[C@@H](CO)O1 [IPdR, 5-iodo-2-pyrimidinone-2′-deoxyribose] : ____
a: 950

###

Assay: Plasma pharmacokinetics after a single oral dose of IPdR
Assay type: in vivo, human (patients with advanced malignancies)
Conditions: read-out: IPdR Cmax; plasma, single oral IPdR 150 mg, one patient
Measurement name: Cmax (nM)
Your answer is read as nM, so omit the unit and give the number.

q: Quick one: Cmax for O=c1ncc(I)cn1[C@H]1C[C@H](O)[C@@H](CO)O1 ?
a: 600

###

Assay: Plasma pharmacokinetics after a single oral dose of IPdR
Type: in vivo, human (patients with advanced malignancies)
Settings: read-out: IPdR Cmax; plasma, single oral IPdR 2400 mg, mean of 6 patients
Measurement name: Cmax (µM)
State the answer as a number, implicitly in µM.

q: Item under review: O=c1ncc(I)cn1[C@H]1C[C@H](O)[C@@H](CO)O1 . Reported Cmax?
a: 4.3

###

Assay: Urinary recovery of IPdR and metabolites after a single oral dose of IPdR
Type: in vivo, human (patients with advanced malignancies)
Settings: patients receiving 2400 mg of IPdR
Measurement name: detection in urine samples

O=c1[nH]c(=O)n([C@H]2C[C@H](O)[C@@H](CO)O2)cc1I [IdUrd, 5-iodo-2′-deoxyuridine, reference compound]: detectable
O=c1ncc(I)c[nH]1 [IP, 5-iodo-2-pyrimidinone]: detectable
O=c1ncc(I)cn1[C@H]1C[C@H](O)[C@@H](CO)O1 [IPdR, 5-iodo-2-pyrimidinone-2′-deoxyribose]: detectable
O=c1[nH]cc(I)c(=O)[nH]1 [IUra, 5-iodouracil]: detectable

###

Test: Plasma pharmacokinetics after a single oral dose of IPdR
Assay type: in vivo, human (patients with advanced malignancies)
Conditions: read-out: IPdR Cmax; plasma, single oral IPdR 600 mg, one patient
Measurement name: Cmax (nM)
Return type: number; implicit unit nM.

q: Entry O=c1ncc(I)cn1[C@H]1C[C@H](O)[C@@H](CO)O1 has what Cmax?
a: 930

###

Assay: Plasma pharmacokinetics after a single oral dose of IPdR
Format: in vivo, human (patients with advanced malignancies)
Settings: human, plasma, po, 300 mg
Can you tell me Cmax for the items I'm about to list?
Only the number, expressed in nM, is required.

q: I'd like to know its Cmax. The compound in question is O=c1[nH]c(=O)n([C@H]2C[C@H](O)[C@@H](CO)O2)cc1I [IdUrd, 5-iodo-2′-deoxyuridine, reference compound]
a: 300

q: Data request, read-out Cmax, for O=c1[nH]cc(I)c(=O)[nH]1 [IUra, 5-iodouracil]
a: 800

###

Assay: Plasma pharmacokinetics after a single oral dose of IPdR
Assay type: in vivo, human (patients with advanced malignancies)
Details: human, plasma, po, 150 mg
Measurement name: Cmax (nM)
State the answer as a number, implicitly in nM.

q: Which value of Cmax has been reported for O=c1[nH]cc(I)c(=O)[nH]1 in the records?
a: 200

q: Reported Cmax for O=c1[nH]c(=O)n([C@H]2C[C@H](O)[C@@H](CO)O2)cc1I [IdUrd, 5-iodo-2′-deoxyuridine, reference compound] : what is it?
a: 800

###

Assay: Plasma pharmacokinetics after a single oral dose of IPdR
Assay type: in vivo, human (patients with advanced malignancies)
Settings: human, plasma, po, 1200 mg
For each record, write down the corresponding AUC.
Give your result as the value with the unit written after it.

q: # query: AUC of entry O=c1[nH]c(=O)n([C@H]2C[C@H](O)[C@@H](CO)O2)cc1I [IdUrd, 5-iodo-2′-deoxyuridine, reference compound]
a: 4.7 µM·h

q: Record request: AUC value, item O=c1[nH]cc(I)c(=O)[nH]1
a: 103 µM·h

###

Assay: Plasma pharmacokinetics after a single oral dose of IPdR
Type: in vivo, human (patients with advanced malignancies)
Settings: human, plasma, po, 2400 mg
Measurement name: Cmax (µM)
Please give a number only; it is taken to be in µM.

q: Please look up its Cmax: O=c1[nH]cc(I)c(=O)[nH]1
a: 133

q: For the compound shown here, O=c1[nH]c(=O)n([C@H]2C[C@H](O)[C@@H](CO)O2)cc1I [IdUrd, 5-iodo-2′-deoxyuridine, reference compound] , give the reported Cmax.
a: 4

###

Test: Plasma pharmacokinetics after a single oral dose of IPdR
Assay type: in vivo, human (patients with advanced malignancies)
Settings: human, plasma, oral, 2400 mg
Measurement name: concentration at 10 hours

q: Record request: concentration at 10 hours value, item O=c1[nH]cc(I)c(=O)[nH]1 [IUra, 5-iodouracil]
a: ~100 µM
